assay: Pharmacokinetics of a single oral dose in a healthy subject; conditions: human, in vivo, 10 mg
parameterMeasured: half-life (h)
Quick reminder: number only, in h, skip the unit.

Sample C=C(CC(NC(=O)c1ccc(CCc2ccc3nc(N)nc(N)c3c2)cc1)C(=O)O)C(=O)O (racemic) — what was its half-life? 3.13

* * *

experiment: Plasma concentration after oral L- or D-CH-1504 in non-fasted rats (Example 14); type: in vivo; details: female, Lewis, rat, plasma, oral, 10 mg/kg, 3 h after 10 mg/kg oral, individual animals, read-out: Plasma conc. of L-CH-1504
parameterMeasured: concentration at 3 h (ng/mL)
Quick reminder: number only, in ng/mL, skip the unit.

Sample C=C(C[C@H](NC(=O)c1ccc(CCc2ccc3nc(N)nc(N)c3c2)cc1)C(=O)O)C(=O)O [L-CH-1504] — what was its concentration at 3 h? 61.9

* * *

assay: Pharmacokinetics of a single oral dose in a healthy subject; conditions: human, in vivo, 7.5 mg
parameterMeasured: Cmax
Answer format reminder: number followed by unit.

Sample C=C(CC(NC(=O)c1ccc(CCc2ccc3nc(N)nc(N)c3c2)cc1)C(=O)O)C(=O)O (racemic) [CH-1504] — what was its Cmax? 2.05 ng/mL

* * *

Biological target: reduced folate carrier (RFC) (Homo sapiens, UniProt P41440)
Construct: endogenous in cells
Sequence (P41440 whole entry): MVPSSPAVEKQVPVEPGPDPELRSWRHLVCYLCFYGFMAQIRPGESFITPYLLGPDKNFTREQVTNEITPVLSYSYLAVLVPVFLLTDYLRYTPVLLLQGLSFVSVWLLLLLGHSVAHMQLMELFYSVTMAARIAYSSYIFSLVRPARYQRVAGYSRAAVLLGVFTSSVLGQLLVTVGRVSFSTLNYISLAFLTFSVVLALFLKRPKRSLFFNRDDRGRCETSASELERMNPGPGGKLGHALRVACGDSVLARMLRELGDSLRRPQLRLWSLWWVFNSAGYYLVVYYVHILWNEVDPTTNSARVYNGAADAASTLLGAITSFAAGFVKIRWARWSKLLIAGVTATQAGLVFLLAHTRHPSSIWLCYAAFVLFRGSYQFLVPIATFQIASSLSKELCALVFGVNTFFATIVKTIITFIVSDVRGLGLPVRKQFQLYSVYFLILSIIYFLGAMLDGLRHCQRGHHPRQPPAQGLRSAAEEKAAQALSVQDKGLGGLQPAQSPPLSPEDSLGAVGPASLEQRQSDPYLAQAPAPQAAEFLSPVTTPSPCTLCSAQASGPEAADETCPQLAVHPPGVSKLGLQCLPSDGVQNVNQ
Assay: [3H]MTX transport inhibition in intact CCRF-CEM human T-cell leukemia cells
Conditions: 2 μM [3H]MTX, 37°, 5 min uptake
Method: Transport of 2 μM [^3H]MTX (methotrexate) at 37° by intact CCRF-CEM human T-cell leukemia was assayed by a micro-method utilizing repeated iced saline washes to remove extracellular drug. […] The washed cell pellets were solubilized in 1 ml of 0.3% Triton X-100 at 37° C. for 1 hour before transfer to scintillation vials; 10 ml Ecoscint liquid scintillation fluid (National Diagnostics, Atlanta, Ga.) was added and radioactivity was quantitated in a Beckman LS6500 scintillation counter. […]
parameterMeasured: pIC50
Note on pIC50: it is the negative log10 of concentration, concentration in mol/L.

Sample records with pIC50:
                                   compound  result
0  C=C(CC(NC(=O)c1ccc(CCc2ccc3nc(N)nc(N)c3c2)cc1)C(=O)O)C(=O)O (racemic) [CH-1504]    5.77
1  C=C(C[C@@H](NC(=O)c1ccc(CCc2ccc3nc(N)nc(N)c3c2)cc1)C(=O)O)C(=O)O [D-CH-1504]    5.12
2  C=C(C[C@H](NC(=O)c1ccc(CCc2ccc3nc(N)nc(N)c3c2)cc1)C(=O)O)C(=O)O [L-CH-1504]    5.96

Turning now to a further record.
Sample Nc1nc(N)c2nc(CNc3ccc(C(=O)N[C@@H](CCC(=O)O)C(=O)O)cc3)cnc2n1 [Aminopterin, reference compound] — what was its pIC50? 5.82

* * *

assay: Pharmacokinetics of a single oral dose in a healthy subject; settings: human, in vivo, 1 mg
parameterMeasured: Cmax (ng/mL)
Quick reminder: number only, in ng/mL, skip the unit.

Sample C=C(CC(NC(=O)c1ccc(CCc2ccc3nc(N)nc(N)c3c2)cc1)C(=O)O)C(=O)O (racemic) [CH-1504] — what was its Cmax? 0.69

* * *

assay: Pharmacokinetics of a single oral dose in a healthy subject; settings: human, in vivo, 5 mg
parameterMeasured: AUC(0-inf) (ng·h/mL)
Quick reminder: number only, in ng·h/mL, skip the unit.

Sample C=C(CC(NC(=O)c1ccc(CCc2ccc3nc(N)nc(N)c3c2)cc1)C(=O)O)C(=O)O (racemic) — what was its AUC(0-inf)? 9.58
